Assay: Quantitative High-Throughput drug screen in 47 multiple myeloma cell lines against the NCATS MIPE library collection: VP6_DJ cell viability assay (AID 1919867); note: nearly all actives have a fitted effect of over 40% in size
Details: ATP luminescence, 48 h; series mostly up to 45.8 µM
Inconclusive results are not listed. Active and inactive are the calls of the source. Calls come from the whole dose curve; as a rule, active = well fitted cell-killing curve with a large enough effect; inconclusive = small, poorly fitted or top-dose-only effect, or effect the other way; inactive = no such curve, though single readings can be large or run the other way.
A correct response names exactly one class from active, inactive

[Q] Lab log entry: CC(=O)NC[C@H]1CN(c2ccc(N3CCOCC3)c(F)c2)C(=O)O1 — outcome as called in the assay?
[A] inactive

[Q] Cool, now Cc1ccc(Nc2nccc(N(C)c3ccc4c(C)n(C)nc4c3)n2)cc1S(N)(=O)=O
[A] active

[Q] Cool, now c1ccc2[nH]c(-c3cscn3)nc2c1
[A] inactive

[Q] Cool, now CC1(C)CCC(C)(C)c2cc(NC(=O)c3ccc(C(=O)O)cc3)ccc21
[A] active

[Q] Cool, now Clc1ccc(C(Cn2ccnc2)OCc2ccc(Sc3ccccc3)cc2)c(Cl)c1 (stereo unspecified)
[A] active

[Q] Cool, now Cc1cc(C2CCCCC2)n(O)c(=O)c1
[A] active

###

Test system: DIV30
Test: qHTS profiling for inhibitors of Plasmodium falciparum proliferation (AID 504749); note: nearly all actives have a fitted effect of over 60% in size
Settings: P. falciparum in erythrocytes, SYBR Green DNA, 72 h; series mostly up to 28.7 µM
Results filed as inconclusive are left out. Activity calls are given as the source filed them. Calls come from the whole dose curve; as a rule, active = well fitted inhibition curve with a large enough effect; inconclusive = small, poorly fitted or top-dose-only effect; inactive = flat fitted curve, though single readings scatter.
A correct response names exactly one class from true (1) for active, false (0) for inactive

[Q] Lab log entry: C=CCc1cc(OC)c(O)c(C(=O)NCCO)c1 — outcome as called in the assay?
[A] false (0)

[Q] Cool, now CCCc1cc(=O)[nH]c(=S)[nH]1
[A] false (0)

[Q] Cool, now Cc1nc2n(c(=O)c1CCN1CCC(c3noc4cc(F)ccc34)CC1)CCCC2
[A] false (0)

[Q] Cool, now C[C@H](Cn1cnc2c(N)ncnc21)OCP(=O)(O)O
[A] false (0)

[Q] Cool, now Cc1nc(Nc2ncc(C(=O)Nc3c(C)cccc3Cl)s2)cc(N2CCN(CCO)CC2)n1
[A] true (1)

[Q] Cool, now Cc1cc2c(s1)Nc1ccccc1N=C2N1CCN(C)CC1
[A] false (0)

[Q] Cool, now O=C(O)c1cccc(-c2noc(-c3ccccc3F)n2)c1
[A] false (0)

[Q] Cool, now COc1ccc2cc([C@H](C)C(=O)O)ccc2c1
[A] false (0)

[Q] Cool, now O=C(O)c1cn(-c2ccc(F)cc2)c2cc(N3CCNCC3)c(F)cc2c1=O
[A] false (0)

[Q] Cool, now Oc1ccc(OCc2ccccc2)cc1
[A] false (0)

[Q] Cool, now O=C(NC(Cc1cc(=O)[nH]c2ccccc12)C(=O)O)c1ccc(Cl)cc1 (centres undefined)
[A] false (0)

[Q] Cool, now Cc1ccc(C)c(OCCCC(C)(C)C(=O)O)c1
[A] false (0)

[Q] Cool, now CCOc1cc(CC(=O)N[C@@H](CC(C)C)c2ccccc2N2CCCCC2)ccc1C(=O)O
[A] false (0)

[Q] Cool, now CCC1=C(C)CN(C(=O)NCCc2ccc(S(=O)(=O)NC(=O)NC3CCC(C)CC3)cc2)C1=O (centres undefined)
[A] false (0)

###

Assay: qHTS Screen of the MIPE 4.0 Collection Against Ewings Sarcoma (EW8) (AID 1259255); note: nearly all actives have a fitted effect of over 35% in size;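 for viability: 100% = DMSO-treated cells and 0% = medium-only wells without cells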
Details: EW8 Ewing sarcoma viability, CellTiter-Glo, 48 h; series mostly up to 45.8 µM
Inconclusive results are not listed. Activity calls are given as the source filed them. Calls follow the shape of the dose curve; as a rule, active = well fitted inhibition curve with a large enough effect; inconclusive = small, poorly fitted or top-dose-only effect; inactive = no such curve, though single readings can be large or run the other way. Non-standard residues stand in square brackets, D forms with d. Residues, ends and D or L forms follow the SMILES beside them. *: point of attachment. Sta = CC(C)C[C@H](N)[C@@H](O)CC(=O)O; Isovaleryl = CC(C)CC(=O)*
A correct response names exactly one class from Y = active, N = inactive

[Q] Lab log entry: CN1C(C(=O)Nc2ccccn2)=C(O)c2sccc2S1(=O)=O — outcome as called in the assay?
[A] N

[Q] Cool, now CCC(C)(Oc1ccc(C2(c3ccc(OC(C)(CC)C(=O)O)cc3)CCCCC2)cc1)C(=O)O (stereo not given)
[A] N

[Q] Cool, now CCOC(=O)C(C)Oc1cccc2c(=O)n(CC(=O)Nc3ccc4c(c3)OCCO4)ccc12 (stereo not given)
[A] Y

[Q] Cool, now CCC[C@@H]1C[C@@H](C(=O)N[C@@H]([C@H]2O[C@H](SC)[C@H](O)[C@@H](O)[C@H]2O)[C@@H](C)O)N(C)C1
[A] N

[Q] Cool, now Cc1cccc(-c2[nH]ncc2-c2ccc3ncccc3n2)n1
[A] N

[Q] Cool, now O=C(NCC1CCCCN1)c1cc(OCC(F)(F)F)ccc1OCC(F)(F)F (stereo not given)
[A] N

[Q] Cool, now COc1ccc(C2(C#N)CCC(C(=O)O)CC2)cc1OC1CCCC1 (stereo not given)
[A] N

[Q] Cool, now CCCS(=O)c1ccc2nc(NC(=O)OC)[nH]c2c1 (stereo not given)
[A] Y

[Q] Cool, now COC(=O)C1=C(C)NC(C)=C(C(=O)OCCCN2CCC(c3ccccc3)(c3ccccc3)CC2)C1c1cccc([N+](=O)[O-])c1 (stereo not given)
[A] Y

[Q] Cool, now COc1cc2nc(N3CCN(C(=O)C4CCCO4)CC3)nc(N)c2cc1OC (stereo not given)
[A] N

[Q] Cool, now COc1c2occc2cc2ccc(=O)oc12
[A] N

[Q] Cool, now CC(C)CC(=O)N[C@H](C(=O)N[C@H](C(=O)N[C@@H](CC(C)C)[C@@H](O)CC(=O)N[C@@H](C)C(=O)N[C@@H](CC(C)C)[C@@H](O)CC(=O)O)C(C)C)C(C)C (Isovaleryl-VV[Sta]A[Sta]-OH)
[A] N

[Q] Cool, now CCN(CC)CCOc1ccc(Nc2ncc3cc(-c4c(Cl)cccc4Cl)c(=O)n(C)c3n2)cc1
[A] Y

[Q] Cool, now CN(C)CCCC1(c2ccc(F)cc2)OCc2cc(C#N)ccc21 (stereo not given)
[A] N

[Q] Cool, now Cc1cc(Cl)ccc1OCCCC(=O)NO
[A] Y

[Q] Cool, now COc1cc(OC)c(C(=O)CCCN2CCCC2)c(OC)c1
[A] N

[Q] Cool, now Cc1cc(=O)oc2cc(O)ccc12
[A] N

[Q] Cool, now C[C@H](Cc1ccc(O)c(O)c1)[C@@H](C)Cc1ccc(O)c(O)c1
[A] Y

[Q] Cool, now O=C(NCCO[N+](=O)[O-])c1cccnc1
[A] N

[Q] Cool, now O=C(O)c1cc(=O)c2c(OCC(O)COc3cccc4oc(C(=O)O)cc(=O)c34)cccc2o1
[A] N

[Q] Cool, now CC(C)[C@H](N)C(=O)OCCOCn1cnc2c(=O)[nH]c(N)nc21
[A] N

[Q] Cool, now O=C(O)c1cccnc1Nc1cccc(C(F)(F)F)c1
[A] N

[Q] Cool, now N=C(N)c1ccc2cc(OC(=O)c3ccc(N=C(N)N)cc3)ccc2c1
[A] N

[Q] Cool, now C[C@]12CCC(=O)C=C1CC[C@@H]1[C@H]2[C@@H](O)C[C@@]2(C)[C@H]1CC[C@]2(O)C(=O)CO
[A] N

[Q] Cool, now Cc1ncc([N+](=O)[O-])n1CC(C)O (stereo not given)
[A] N

[Q] Cool, now CC(C)(S)[C@@H](N)C(=O)O
[A] N

[Q] Cool, now Oc1ccc(OCc2ccccc2)cc1
[A] Y

[Q] Cool, now NS(=O)(=O)c1cc(C(=O)O)c(NCc2ccco2)cc1Cl
[A] N

[Q] Cool, now Nc1nc(OCc2ccccc2)c2[nH]cnc2n1
[A] Y

[Q] Cool, now COC(=O)N[C@H](C(=O)N[C@@H](Cc1ccccc1)[C@@H](O)CN(Cc1ccc(-c2ccccn2)cc1)NC(=O)[C@@H](NC(=O)OC)C(C)(C)C)C(C)(C)C
[A] N

###

Assay: Quantitative High-Throughput drug screen in 47 multiple myeloma cell lines against the NCATS MIPE library collection: KMM1_JCRB cell viability assay (AID 1918960); note: nearly all actives have a fitted effect of over 30% in size
Settings: KMM1 myeloma viability, CellTiter-Glo ATP luminescence, 48 h; series mostly up to 45.8 µM
From the text: PI: Beverly A. Mock Ph.D. Laboratory of Cancer Biology and Genetics, Center for Cancer Research, National Cancer Institute, National Institute of Health, Bethesda, Maryland […] 5; Detector; 425V; Luminescence; Viewlux PerkinElmer. […] 1. […] Briefly, the corresponding myeloma cell lines were screened in 1,536-well plates with 500 cells, 5-uL per well for inhibition of cell viability (assessed by measuring ATP levels with CellTiterGlo). […]
Records with an inconclusive call do not appear. Active and inactive are the calls of the source. Calls follow the shape of the dose curve; as a rule, active = well fitted cell-killing curve with a large enough effect; inconclusive = small, poorly fitted or top-dose-only effect, or effect the other way; inactive = no such curve, though single readings can be large or run the other way.
A correct response names exactly one class from true for active, false for inactive

[Q] Lab log entry: CCCS(=O)c1ccc2nc(NC(=O)OC)[nH]c2c1 (stereo unspecified) — outcome as called in the assay?
[A] false

[Q] Cool, now CCN(CCO)CCCC(C)Nc1ccnc2cc(Cl)ccc12 (stereo unspecified)
[A] false

[Q] Cool, now Cc1cccc(C)c1OCC(=O)N[C@@H](Cc1ccccc1)[C@@H](O)C[C@H](Cc1ccccc1)NC(=O)[C@H](C(C)C)N1CCCNC1=O
[A] true

[Q] Cool, now Cc1cccc(C#Cc2ccccc2)n1
[A] false

[Q] Cool, now Nc1ccc(S(N)(=O)=O)cc1
[A] false

[Q] Cool, now CCN(CC)CCOc1ccc(Nc2ncc3cc(-c4c(Cl)cccc4Cl)c(=O)n(C)c3n2)cc1
[A] true
